# Test system: Liver microsome
# protocol.details: Metabolic stability in human liver microsomes assessed as compound remaining
reported.metric: Stability (%)
Give bare numbers, in %.

Worked cases, Stability given:
1. CC(C)(O)c1ccc(-c2ccc3c(n2)Oc2c(F)cccc2[C@@H]3C(C)(C)C(=O)NC(N)=O)cn1 = 73
2. CC(C)(C(=O)NC(N)=O)[C@@H]1c2ccc(-c3ccc(C(=O)N4CCOCC4)cc3)nc2Oc2c(F)cccc21 = 83
3. CC(C)(C(=O)NC(N)=O)[C@@H]1c2ccc(-c3ccc(C(=O)N4CCCC4)nc3)nc2Oc2c(F)cccc21 = 73

## Input Return reported Stability; argument: CC(C)(C(=O)NC(N)=O)[C@H]1c2ccccc2Oc2nc(-c3ccc(C(=O)N4CCCC4)cc3)ccc21
## Output 78

---

# assay.target: Glucocorticoid receptor (Homo sapiens, UniProt P04150)
# Sequence (P04150 whole entry): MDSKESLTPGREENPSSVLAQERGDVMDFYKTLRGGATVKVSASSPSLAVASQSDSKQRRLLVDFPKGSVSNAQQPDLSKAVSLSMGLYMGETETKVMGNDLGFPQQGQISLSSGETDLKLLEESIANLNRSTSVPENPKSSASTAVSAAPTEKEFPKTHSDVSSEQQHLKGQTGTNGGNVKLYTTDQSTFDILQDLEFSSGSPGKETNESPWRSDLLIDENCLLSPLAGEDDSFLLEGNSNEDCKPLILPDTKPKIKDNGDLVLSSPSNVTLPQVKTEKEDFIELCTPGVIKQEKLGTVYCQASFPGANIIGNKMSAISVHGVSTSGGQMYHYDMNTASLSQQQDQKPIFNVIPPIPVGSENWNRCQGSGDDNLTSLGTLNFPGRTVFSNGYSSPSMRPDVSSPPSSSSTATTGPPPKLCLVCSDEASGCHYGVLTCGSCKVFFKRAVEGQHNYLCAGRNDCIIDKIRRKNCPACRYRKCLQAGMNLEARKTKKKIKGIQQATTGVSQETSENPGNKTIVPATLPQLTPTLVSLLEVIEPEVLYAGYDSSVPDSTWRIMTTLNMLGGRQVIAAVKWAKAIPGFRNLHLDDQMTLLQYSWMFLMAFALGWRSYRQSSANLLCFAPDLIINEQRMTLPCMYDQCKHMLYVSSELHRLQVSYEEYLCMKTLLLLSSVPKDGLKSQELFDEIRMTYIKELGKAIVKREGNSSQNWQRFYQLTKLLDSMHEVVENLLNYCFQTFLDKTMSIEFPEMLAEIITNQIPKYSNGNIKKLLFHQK
Answer each item with its documented pKi.
Give bare numbers, as −log10 of the molar value.

1. CNC(=O)NC(=O)C(C)(C)[C@@H]1c2ccc(-c3ccc(C(=O)N4CCOCC4)cc3)nc2Oc2c(F)cccc21 = 8.16
2. CN(C)C(=O)NC(=O)C(C)(C)[C@@H]1c2ccc(-c3ccc(C(=O)N4CCOCC4)cc3)nc2Oc2c(F)cccc21 = 6.96

Now look at this entry.
## Input Return reported pKi; argument: CN(C)C(=O)c1ccc(-c2ccc3c(n2)Oc2ccccc2[C@@H]3C(C)(C)C(=O)Nc2nncs2)cc1
## Output 8.72

---

Answer each item with its documented pEC50.
# assay.target: UniProtKB P04150
# Sequence (P04150 whole entry): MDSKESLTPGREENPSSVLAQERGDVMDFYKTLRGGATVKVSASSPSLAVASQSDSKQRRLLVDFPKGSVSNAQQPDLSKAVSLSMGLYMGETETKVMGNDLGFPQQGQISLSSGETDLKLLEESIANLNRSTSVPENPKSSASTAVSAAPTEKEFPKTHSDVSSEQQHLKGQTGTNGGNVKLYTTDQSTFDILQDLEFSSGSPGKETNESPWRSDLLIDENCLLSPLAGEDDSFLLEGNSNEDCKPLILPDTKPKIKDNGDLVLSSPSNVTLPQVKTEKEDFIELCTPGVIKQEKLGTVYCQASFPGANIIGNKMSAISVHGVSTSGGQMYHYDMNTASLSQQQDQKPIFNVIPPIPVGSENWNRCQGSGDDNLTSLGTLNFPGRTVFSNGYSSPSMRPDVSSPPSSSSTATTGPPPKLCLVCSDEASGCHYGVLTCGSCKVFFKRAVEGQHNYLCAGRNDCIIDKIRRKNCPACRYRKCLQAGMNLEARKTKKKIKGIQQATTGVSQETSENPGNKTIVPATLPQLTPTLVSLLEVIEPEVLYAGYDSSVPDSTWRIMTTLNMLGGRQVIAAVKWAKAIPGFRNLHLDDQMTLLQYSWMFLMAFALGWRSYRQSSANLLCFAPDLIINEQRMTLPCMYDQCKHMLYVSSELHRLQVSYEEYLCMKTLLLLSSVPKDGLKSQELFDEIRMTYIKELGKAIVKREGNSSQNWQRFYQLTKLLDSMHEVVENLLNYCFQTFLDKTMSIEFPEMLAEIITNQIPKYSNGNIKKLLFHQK
# protocol.details: Agonist activity at glucocorticoid receptor in human A549 cells assessed as E-selectin transrepression by luciferase reporter gene assay
# Type: cell-based
Numbers only, as −log10 of the molar value.

1) CCN(C)C(=O)c1ccc(-c2ccc3c(n2)Oc2ccccc2[C@@H]3C(C)(C)C(=O)Nc2nncs2)cc1 = 8.16
2) CC(C)(C(=O)NC(=O)C1CCC1)[C@@H]1c2ccc(-c3ccc(C(=O)N4CCOCC4)cc3)nc2Oc2c(F)cccc21 = 7.48

## Input Return reported pEC50; argument: CC(C)(C(=O)NC(=O)NC1CCC1)[C@@H]1c2ccc(-c3ccc(C(=O)N4CCOCC4)cc3)nc2Oc2c(F)cccc21
## Output 7.48

Where these numbers come from: ChEMBL document CHEMBL3351663
